# experiment notes: Pharmacokinetics study of succinate salt crystals in dogs
# Assay type: in vivo
# measurement parameters: dog, po, 5 mg/kg orally, plasma
# Method: The succinate salt of 2-(4-acetylbenzyl)-3-((4-fluorophenyl)amino)-5,7,7-trimethyl-7,8-dihydro-2H-imidazo[1,2-a]pyrazolo[4,3-e]pyrimidin-4(5H)-one is administered to dogs at a dose of 5 mg/kg orally. […] The analysis of drug concentration in plasma samples collected is analyzed. The pharmacokinetic (PK) parameters are determined from the plasma concentration versus time data by non-compartmental methods with uniform weighting. […]
Record form. Attribute: half-life. Fill in for each entry.
Please respond with the number in h and leave the unit unwritten.

Query block: Tell us which half-life value is on record for CC(=O)c1ccc(Cn2nc3c(c2Nc2ccc(F)cc2)C(=O)N(C)C2=NC(C)(C)CN23)cc1.O=C(O)CCC(=O)O [Succinate Salt]
Result block: 7

Query block: Tell us which half-life value is on record for CC(=O)c1ccc(Cn2nc3c(c2Nc2ccc(F)cc2)C(=O)N(C)C2=NC(C)(C)CN23)cc1 [Free Base]
Result block: 6.8

###

# experiment notes: Solubility study of free base crystalline and succinate salt crystalline forms (pH titration, chase equilibrium)
# Assay type: physicochemical
# measurement parameters: water, thermodynamic from solid, aqueous, titration with UV-turbidity probe
measurement name: solubility (µg/mL)
Please respond with the number in µg/mL and leave the unit unwritten.

Query block: Tell us which solubility value is on record for CC(=O)c1ccc(Cn2nc3c(c2Nc2ccc(F)cc2)C(=O)N(C)C2=NC(C)(C)CN23)cc1 [Free Base]
Result block: 285

###

Record form. Attribute: AUC(0-t). Fill in for each entry.
# experiment notes: Pharmacokinetics study of succinate salt crystals in dogs
# Type: in vivo
# measurement parameters: dog, po, 5 mg/kg orally, plasma, read-out: AUC0-24
# Description: The succinate salt of 2-(4-acetylbenzyl)-3-((4-fluorophenyl)amino)-5,7,7-trimethyl-7,8-dihydro-2H-imidazo[1,2-a]pyrazolo[4,3-e]pyrimidin-4(5H)-one is administered to dogs at a dose of 5 mg/kg orally. […] The analysis of drug concentration in plasma samples collected is analyzed. The pharmacokinetic (PK) parameters are determined from the plasma concentration versus time data by non-compartmental methods with uniform weighting. […]
Please respond with the number in ng·h/mL and leave the unit unwritten.

Query block: Tell us which AUC(0-t) value is on record for CC(=O)c1ccc(Cn2nc3c(c2Nc2ccc(F)cc2)C(=O)N(C)C2=NC(C)(C)CN23)cc1 [Free Base]
Result block: 1520

Query block: Tell us which AUC(0-t) value is on record for CC(=O)c1ccc(Cn2nc3c(c2Nc2ccc(F)cc2)C(=O)N(C)C2=NC(C)(C)CN23)cc1.O=C(O)CCC(=O)O [Succinate Salt]
Result block: 1660
